Data provenance is paper PMC12426935.

Biological target: human P2X7 (WT hP2X7) (Homo sapiens)
Sequence (Q99572 whole entry): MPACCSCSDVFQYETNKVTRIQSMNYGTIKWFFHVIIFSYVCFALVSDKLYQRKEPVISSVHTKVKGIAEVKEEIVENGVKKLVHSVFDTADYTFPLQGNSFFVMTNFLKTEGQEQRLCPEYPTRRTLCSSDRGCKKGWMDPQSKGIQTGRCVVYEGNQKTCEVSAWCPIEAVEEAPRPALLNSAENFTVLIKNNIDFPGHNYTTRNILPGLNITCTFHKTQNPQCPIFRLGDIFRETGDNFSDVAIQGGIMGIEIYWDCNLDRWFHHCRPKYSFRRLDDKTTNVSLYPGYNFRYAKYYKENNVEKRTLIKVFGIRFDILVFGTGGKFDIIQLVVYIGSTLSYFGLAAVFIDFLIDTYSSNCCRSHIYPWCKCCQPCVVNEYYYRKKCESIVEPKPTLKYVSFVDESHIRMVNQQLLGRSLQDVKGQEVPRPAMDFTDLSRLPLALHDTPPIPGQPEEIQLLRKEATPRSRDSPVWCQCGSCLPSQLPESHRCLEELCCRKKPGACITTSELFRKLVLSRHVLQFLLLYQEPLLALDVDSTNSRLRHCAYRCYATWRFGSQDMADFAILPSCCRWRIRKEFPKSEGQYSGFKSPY
Experiment: fura-2 intracellular calcium assay on HEK-293 stable cell line expressing human P2X7
Assay type: cell-based
Conditions: Human P2X7, species comparison (Table 1); mean in brackets, n = 3; read-out: mean IC50
readout: IC50 (nM)
Number only, in nM; omit the unit.

[in] What IC50 value was documented for this compound, O=C(NCC1(N2CCN(c3ccccc3)CC2)CCOCC1)c1cccnc1Sc1ccccc1 [JNJ-47965567] ?
[out] 9

====

Molecular target: F88A hP2X7 (Homo sapiens, UniProt Q99572, F88A)
Sequence (Q99572 whole entry F88A): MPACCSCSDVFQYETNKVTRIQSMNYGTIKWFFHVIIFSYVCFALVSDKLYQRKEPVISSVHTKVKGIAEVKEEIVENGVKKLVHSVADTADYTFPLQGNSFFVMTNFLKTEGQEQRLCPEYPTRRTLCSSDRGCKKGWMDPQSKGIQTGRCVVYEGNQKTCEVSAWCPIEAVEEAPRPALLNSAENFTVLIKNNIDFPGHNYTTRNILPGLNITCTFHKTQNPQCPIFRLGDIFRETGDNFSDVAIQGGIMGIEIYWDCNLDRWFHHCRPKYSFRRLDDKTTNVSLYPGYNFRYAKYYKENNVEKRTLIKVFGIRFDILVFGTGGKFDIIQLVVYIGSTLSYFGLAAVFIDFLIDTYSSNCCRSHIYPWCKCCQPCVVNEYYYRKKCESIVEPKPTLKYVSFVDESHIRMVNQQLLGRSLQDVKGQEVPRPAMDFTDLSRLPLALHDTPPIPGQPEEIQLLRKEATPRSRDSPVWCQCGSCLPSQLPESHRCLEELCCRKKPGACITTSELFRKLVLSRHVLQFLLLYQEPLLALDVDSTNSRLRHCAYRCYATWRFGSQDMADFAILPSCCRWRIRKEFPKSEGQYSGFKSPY
Test: fura-2 intracellular calcium assay on HEK-293 stable cell line expressing NAM-site mutant F88A hP2X7
Format: cell-based
Details: F88A hP2X7, agonist BzATP; mean in brackets, n = 3; read-out: mean IC50
readout: IC50 (nM)
Number only, in nM; omit the unit.

[in] What IC50 value was documented for this compound, O=C(NCC1(N2CCN(c3ccccc3)CC2)CCOCC1)c1cccnc1Sc1ccccc1 [JNJ-47965567] ?
[out] 53.8

====

Target: mouse P2X7 (mP2X7) (Mus musculus)
Sequence (Q9Z1M0 whole entry): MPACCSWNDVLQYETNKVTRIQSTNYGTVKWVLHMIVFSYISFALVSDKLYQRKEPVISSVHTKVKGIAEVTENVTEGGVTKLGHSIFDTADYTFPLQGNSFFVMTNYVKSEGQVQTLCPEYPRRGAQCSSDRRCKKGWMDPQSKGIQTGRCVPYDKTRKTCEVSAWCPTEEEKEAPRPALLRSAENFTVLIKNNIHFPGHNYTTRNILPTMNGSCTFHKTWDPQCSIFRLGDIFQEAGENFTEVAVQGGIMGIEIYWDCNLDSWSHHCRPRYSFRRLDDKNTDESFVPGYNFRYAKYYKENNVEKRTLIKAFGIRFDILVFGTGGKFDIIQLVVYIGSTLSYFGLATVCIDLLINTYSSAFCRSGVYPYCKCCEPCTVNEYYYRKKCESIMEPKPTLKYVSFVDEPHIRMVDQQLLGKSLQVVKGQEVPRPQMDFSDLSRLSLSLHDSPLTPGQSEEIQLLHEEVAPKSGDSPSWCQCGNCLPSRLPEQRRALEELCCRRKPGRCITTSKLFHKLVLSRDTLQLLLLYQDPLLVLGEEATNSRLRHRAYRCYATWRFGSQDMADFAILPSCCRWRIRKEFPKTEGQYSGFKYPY
Experiment: fura-2 intracellular calcium assay on HEK-293 stable cell line expressing mouse P2X7
Details: Mouse P2X7 (Table 1); mean in brackets, n = 3
Assign IC50 to each entry below.
Number only, in nM; omit the unit.

[in] Lookup: IC50 / mouse P2X7 (mP2X7) (Mus musculus) / O=C(NCC1(N2CCN(c3ccccc3)CC2)CCOCC1)c1cccnc1Sc1ccccc1
[out] 125

[in] Lookup: IC50 / mouse P2X7 (mP2X7) (Mus musculus) / O=C(CC12CC3CC(CC(C3)C1)C2)Nc1cccc2nc(NCCNCCO)ccc12
[out] 524

====

Target: rat P2X7 (rP2X7) (Rattus norvegicus, UniProt Q64663)
Construct: expressed in transfected cells
Sequence (Q64663 whole entry): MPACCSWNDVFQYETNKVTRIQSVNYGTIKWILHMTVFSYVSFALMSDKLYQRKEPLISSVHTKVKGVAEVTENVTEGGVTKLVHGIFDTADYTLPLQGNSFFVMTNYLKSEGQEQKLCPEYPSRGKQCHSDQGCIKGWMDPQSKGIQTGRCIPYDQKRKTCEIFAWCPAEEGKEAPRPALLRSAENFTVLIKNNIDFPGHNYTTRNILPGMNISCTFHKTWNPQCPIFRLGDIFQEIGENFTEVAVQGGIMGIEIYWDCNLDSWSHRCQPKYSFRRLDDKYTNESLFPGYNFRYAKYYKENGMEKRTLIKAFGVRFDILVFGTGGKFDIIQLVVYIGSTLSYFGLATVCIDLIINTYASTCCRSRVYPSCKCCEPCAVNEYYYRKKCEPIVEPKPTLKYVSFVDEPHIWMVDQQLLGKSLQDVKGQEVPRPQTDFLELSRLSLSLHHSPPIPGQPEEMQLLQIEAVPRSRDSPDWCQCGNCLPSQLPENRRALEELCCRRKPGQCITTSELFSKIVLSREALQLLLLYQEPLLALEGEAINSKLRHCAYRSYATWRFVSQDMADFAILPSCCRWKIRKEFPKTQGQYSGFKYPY
Assay: fura-2 intracellular calcium assay on HEK-293 stable cell line expressing rat P2X7
Assay type: cell-based
Details: Rat P2X7 (Table 1); mean in brackets, n = 3; read-out: mean IC50
readout: IC50 (nM)
Number only, in nM; omit the unit.

[in] What IC50 value was documented for this compound, O=C(CC12CC3CC(CC(C3)C1)C2)Nc1cccc2nc(NCCNCCO)ccc12 ?
[out] 53.1

[in] What IC50 value was documented for this compound, O=C(NCC1(N2CCN(c3ccccc3)CC2)CCOCC1)c1cccnc1Sc1ccccc1 ?
[out] 17.6
